# TESTED SYSTEM: LIMK2KD (Homo sapiens, UniProt P53671)
# Construct: The cDNA coding for LIMK2 residues 330 to 632 was PCR amplified; His6 (N, cleaved yes); made in house; host or cells: baculovirus; Sf9 for virus, TriEx insect cells for expression
# Sequence (P53671 330-632): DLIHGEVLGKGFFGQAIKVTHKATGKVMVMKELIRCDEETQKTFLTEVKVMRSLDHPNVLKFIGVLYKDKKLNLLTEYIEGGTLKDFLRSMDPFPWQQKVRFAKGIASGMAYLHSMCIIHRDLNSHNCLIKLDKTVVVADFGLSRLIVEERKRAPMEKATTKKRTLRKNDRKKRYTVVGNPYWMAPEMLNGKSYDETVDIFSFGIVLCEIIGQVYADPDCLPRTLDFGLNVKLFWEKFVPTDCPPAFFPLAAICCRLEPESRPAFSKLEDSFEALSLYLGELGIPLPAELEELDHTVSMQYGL
# PROTOCOL DESCRIPTION: Differential (dynamic) scanning fluorimetry (DSF) assay, LIMK2KD
# Type: binding
# MEASUREMENT CONDITIONS: LIMK2KD, compound 10 µM, single shot; read-out: TM Shift LIMK2 (K)
READOUT LABEL: ΔTm at 10 µM (°C)

[[record]]
structure_smiles_string = "O=C(Nc1cc(C(F)(F)F)cc(C(F)(F)F)c1)c1cc(Cl)ccc1O"
readout_label = "ΔTm at 10 µM"
readout_value = 1.4

[[record]]
structure_smiles_string = "FC(F)(F)c1ccc(/C=C/c2nc(COc3ccc(CCCCn4ccnn4)cc3)co2)cc1"
readout_label = "ΔTm at 10 µM"
readout_value = -0.4

[[record]]
structure_smiles_string = "CNC(=O)c1ccccc1Sc1ccc2c(/C=C/c3ccccn3)n[nH]c2c1"
readout_label = "ΔTm at 10 µM"
readout_value = -0.7

[[record]]
structure_smiles_string = "CCNC(=O)Nc1ccc(-c2nc3c(c(N4CCOC[C@@H]4C)n2)CCN(C2COC2)C3)cc1"
readout_label = "ΔTm at 10 µM"
readout_value = -1.3

[[record]]
structure_smiles_string = "COc1cc(OC2CCN(C)CC2)ccc1Nc1ncc2c(n1)n(C1CCCC1)c(=O)n2C"
readout_label = "ΔTm at 10 µM"
readout_value = 0

[[record]]
structure_smiles_string = "Cc1[nH]c(/C=C2\\C(=O)Nc3ccc(S(=O)(=O)Cc4c(Cl)cccc4Cl)cc32)c(C)c1C(=O)N1CCC[C@@H]1CN1CCCC1"
readout_label = "ΔTm at 10 µM"
readout_value = -0.4

[[record]]
structure_smiles_string = "C=CCn1c(=O)c2cnc(Nc3ccc(N4CCN(C)CC4)cc3)nc2n1-c1cccc(C(C)(C)O)n1"
readout_label = "ΔTm at 10 µM"
readout_value = 0

[[record]]
structure_smiles_string = "C=CC(=O)Nc1cccc(Nc2nc(Nc3ccc(OCCOC)cc3)ncc2F)c1"
readout_label = "ΔTm at 10 µM"
readout_value = 3.1


====

Listing of entries alongside the reported ΔTm at 10 µM.
# TESTED SYSTEM: LIMK1KD (Homo sapiens)
# Construct: His6 (N, cleaved yes); made in house; host or cells: baculovirus; Sf9 for virus, TriEx insect cells for expression
# Sequence (P53667 330-637): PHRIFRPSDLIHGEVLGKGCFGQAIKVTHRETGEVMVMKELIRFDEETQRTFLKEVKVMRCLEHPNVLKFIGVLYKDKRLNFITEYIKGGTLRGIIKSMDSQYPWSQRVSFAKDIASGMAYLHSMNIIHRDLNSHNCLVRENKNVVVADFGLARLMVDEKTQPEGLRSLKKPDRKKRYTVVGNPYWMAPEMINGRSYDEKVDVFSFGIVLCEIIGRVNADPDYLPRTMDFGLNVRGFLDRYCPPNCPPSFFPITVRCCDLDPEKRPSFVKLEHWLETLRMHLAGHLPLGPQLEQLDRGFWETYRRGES
# PROTOCOL DESCRIPTION: Differential (dynamic) scanning fluorimetry (DSF) assay, LIMK1KD
# Assay type: binding
# MEASUREMENT CONDITIONS: 2 µM LIMK1KD, compound 10 µM, single shot; read-out: TM Shift LIMK1 (K)
READOUT LABEL: ΔTm at 10 µM (°C)

[[record]]
structure_smiles_string = "CC(C)(C)c1cnc(CSc2cnc(NC(=O)C3CCNCC3)s2)o1"
readout_label = "ΔTm at 10 µM"
readout_value = 0.1

[[record]]
structure_smiles_string = "O=C(Nc1cc(C(F)(F)F)cc(C(F)(F)F)c1)c1cc(Cl)ccc1O"
readout_label = "ΔTm at 10 µM"
readout_value = -0.6

[[record]]
structure_smiles_string = "C#Cc1cccc(Nc2ncnc3cc(OC)c(OCCCCCCC(=O)NO)cc23)c1"
readout_label = "ΔTm at 10 µM"
readout_value = 0.8

[[record]]
structure_smiles_string = "Cc1ncc(-c2ccnc(Nc3ccc(S(C)(=O)=O)cc3)n2)n1C(C)C"
readout_label = "ΔTm at 10 µM"
readout_value = 4.4

[[record]]
structure_smiles_string = "CO[C@H]1C[C@@H]2CC[C@@H](C)[C@@](O)(O2)C(=O)C(=O)N2CCCC[C@H]2C(=O)O[C@H]([C@H](C)C[C@@H]2CC[C@@H](OC(=O)C(C)(CO)CO)[C@H](OC)C2)CC(=O)[C@H](C)/C=C(\\C)[C@@H](O)[C@@H](OC)C(=O)[C@H](C)C[C@H](C)/C=C/C=C/C=C/1C"
readout_label = "ΔTm at 10 µM"
readout_value = -0.7

[[record]]
structure_smiles_string = "CNc1nc(-c2ccc3c(N)n[nH]c3c2)cc(N2C[C@@H](C(=O)NC3CCCCC3)CC[C@H]2C)n1"
readout_label = "ΔTm at 10 µM"
readout_value = 0.5


====

# TESTED SYSTEM: LIMK2KD (Homo sapiens)
# Construct: The cDNA coding for LIMK2 residues 330 to 632 was PCR amplified; His6 (N, cleaved yes); made in house; host or cells: baculovirus; Sf9 for virus, TriEx insect cells for expression
# PROTOCOL DESCRIPTION: Differential (dynamic) scanning fluorimetry (DSF) assay, LIMK2KD
# Assay type: binding
# MEASUREMENT CONDITIONS: LIMK2KD, compound 10 µM, single shot
Field: class. Source value: TM Shift LIMK2 (K). Ranges: label 0: < 0.2 K; label 1: ≥ 0.2 K and < 2 K; label 2: ≥ 2 K

[[record]]
compound = "COc1cc2ncnc(Nc3ccc(Cl)cc3F)c2cc1OC"
label = "label 1"

[[record]]
compound = "O=C(c1ccc(Nc2nccc(-c3cc4ccccc4s3)n2)cc1)N1CCC(N2CCCC2)CC1"
label = "label 2"

[[record]]
compound = "Cc1c(CN2CCN(C(=O)[C@H](C)O)CC2)sc2c(N3CCOCC3)nc(-c3cnc(N)nc3)nc12 [GDC-0980 (RG7422)]"
label = "label 1"

[[record]]
compound = "Cc1ccc(-c2nn(C(C)(C)C)c3ncnc(N)c23)cc1"
label = "label 0"

[[record]]
compound = "C[C@@H](N)[C@H]1CC[C@H](C(=O)Nc2ccncc2)CC1.Cl.Cl [Y-27632 2HCl]"
label = "label 1"

[[record]]
compound = "Cc1cc(CN2CCN(c3c(Br)cnc4nc(-c5ccc(N6CCN(C)CC6)cc5)[nH]c34)CC2)no1"
label = "label 2"

[[record]]
compound = "Cn1cc(-c2ccc3nnc(C(F)(F)c4ccc5ncccc5c4)n3n2)cn1"
label = "label 0"

[[record]]
compound = "OCCn1cc(-c2cnc3nnn(Cc4ccc5ncccc5c4)c3n2)cn1"
label = "label 0"

[[record]]
compound = "CN1CCC(c2c(O)cc(O)c3c(=O)cc(-c4ccccc4Cl)oc23)C1CO (centres unmarked)"
label = "label 1"

[[record]]
compound = "COc1cc2nccc(Oc3ccc(NC(=O)Nc4ccc(F)cc4F)c(F)c3)c2cc1OC"
label = "label 1"

[[record]]
compound = "N#CC(C#N)=Cc1ccc(O)c(O)c1"
label = "label 1"

[[record]]
compound = "CN(C)Cc1cccc(N/C(=C2\\C(=O)Nc3cc(C(=O)N(C)C)ccc32)c2ccccc2)c1"
label = "label 2"

[[record]]
compound = "O=C1NC(=O)/C(=C/c2ccc(-c3ccc(F)cc3O)o2)S1"
label = "label 2"

[[record]]
compound = "COc1ccc(COc2cc3oc(=O)c4cc(C(C)O)ccc4c3cc2OC)cc1 (centres unmarked)"
label = "label 2"

[[record]]
compound = "O=C1Nc2cc(Br)ccc2/C1=C1/Nc2ccccc2/C1=N\\O"
label = "label 2"

[[record]]
compound = "CC(C)(C)n1nc(-c2ccc(Cl)cc2)c2c(N)ncnc21"
label = "label 2"


====

# TESTED SYSTEM: LIMK2KD (Homo sapiens, UniProt P53671)
# Construct: The cDNA coding for LIMK2 residues 330 to 632 was PCR amplified; His6 (N, cleaved yes); made in house; host or cells: baculovirus; Sf9 for virus, TriEx insect cells for expression
# PROTOCOL DESCRIPTION: Differential (dynamic) scanning fluorimetry (DSF) assay, LIMK2KD
# Format: binding
# MEASUREMENT CONDITIONS: LIMK2KD, compound 10 µM, single shot; read-out: TM Shift LIMK2 (K)
Counter-ions that a name gives are not always drawn.
Listing of entries alongside the reported ΔTm at 10 µM.
READOUT LABEL: ΔTm at 10 µM (°C)

[[record]]
molecule = "Cc1cc(C(=O)NOCCO)c(Nc2ccc(I)cc2F)n(C)c1=O"
tested_system = "LIMK2KD (Homo sapiens, UniProt P53671)"
readout_label = "ΔTm at 10 µM"
readout_value = 0.2

[[record]]
molecule = "CC(C)n1nc(-c2ccc3oc(N)nc3c2)c2c(N)ncnc21"
tested_system = "LIMK2KD (Homo sapiens, UniProt P53671)"
readout_label = "ΔTm at 10 µM"
readout_value = 0.3

[[record]]
molecule = "CN1CCN(c2nc(C3=C(c4c[nH]c5ccccc45)C(=O)NC3=O)c3ccccc3n2)CC1"
tested_system = "LIMK2KD (Homo sapiens, UniProt P53671)"
readout_label = "ΔTm at 10 µM"
readout_value = 1.2

[[record]]
molecule = "C[C@@H](Oc1cc(-c2cnn(C3CCNCC3)c2)cnc1N)c1c(Cl)ccc(F)c1Cl"
tested_system = "LIMK2KD (Homo sapiens, UniProt P53671)"
readout_label = "ΔTm at 10 µM"
readout_value = 1.4

[[record]]
molecule = "O=C(O)c1ccc(-c2c[nH]c3ncc(-c4ccccc4)cc23)cc1C1CCCC1"
tested_system = "LIMK2KD (Homo sapiens, UniProt P53671)"
readout_label = "ΔTm at 10 µM"
readout_value = -0.2

[[record]]
molecule = "CS(=O)(=O)N1CCc2c(-c3cnc(N)nc3)nc(N3CCOCC3)nc21"
tested_system = "LIMK2KD (Homo sapiens, UniProt P53671)"
readout_label = "ΔTm at 10 µM"
readout_value = 0.1

[[record]]
molecule = "CCOc1ccn(-c2ccc(F)cc2)c(=O)c1C(=O)Nc1ccc(Oc2ccnc(N)c2Cl)c(F)c1"
tested_system = "LIMK2KD (Homo sapiens, UniProt P53671)"
readout_label = "ΔTm at 10 µM"
readout_value = -0.2

[[record]]
molecule = "CCc1cccc(CC)c1NC(=O)N1Cc2n[nH]c(NC(=O)c3ccc(N4CCN(C)CC4)cc3)c2C1"
tested_system = "LIMK2KD (Homo sapiens, UniProt P53671)"
readout_label = "ΔTm at 10 µM"
readout_value = 0.4

[[record]]
molecule = "N#CC1(c2ccc(NC(=O)c3cccnc3NCc3ccncc3)cc2)CCCC1"
tested_system = "LIMK2KD (Homo sapiens, UniProt P53671)"
readout_label = "ΔTm at 10 µM"
readout_value = 3.8

[[record]]
molecule = "NC(=O)c1ccc(N(C(N)=O)c2c(F)cccc2F)nc1-c1ccc(F)cc1F"
tested_system = "LIMK2KD (Homo sapiens, UniProt P53671)"
readout_label = "ΔTm at 10 µM"
readout_value = -0.6

[[record]]
molecule = "CCCCOc1c(C(=O)c2c(F)cc(C)cc2F)c[nH]c2nncc1-2"
tested_system = "LIMK2KD (Homo sapiens, UniProt P53671)"
readout_label = "ΔTm at 10 µM"
readout_value = 1.4

[[record]]
molecule = "CCN1CCN(Cc2ccc(Nc3ncc(F)c(-c4cc(F)c5nc(C)n(C(C)C)c5c4)n3)nc2)CC1"
tested_system = "LIMK2KD (Homo sapiens, UniProt P53671)"
readout_label = "ΔTm at 10 µM"
readout_value = 0.3

[[record]]
molecule = "CCN1CCN(Cc2ccc(-c3cc4c(N[C@H](C)c5ccccc5)ncnc4[nH]3)cc2)CC1"
tested_system = "LIMK2KD (Homo sapiens, UniProt P53671)"
readout_label = "ΔTm at 10 µM"
readout_value = 4.5

[[record]]
molecule = "CN(C)Cc1cccc(N/C(=C2\\C(=O)Nc3cc(C(N)=O)ccc32)c2ccccc2)c1"
tested_system = "LIMK2KD (Homo sapiens, UniProt P53671)"
readout_label = "ΔTm at 10 µM"
readout_value = -0.1

[[record]]
molecule = "NC(=O)c1cnc(N[C@@H]2CCCC[C@@H]2N)nc1Nc1cccc(-n2nccn2)c1 [PRT062607 (P505-15, BIIB057) HCl]"
tested_system = "LIMK2KD (Homo sapiens, UniProt P53671)"
readout_label = "ΔTm at 10 µM"
readout_value = -1

[[record]]
molecule = "CC[C@@H]1C(=O)N(C)c2cnc(Nc3ccc(C(=O)N[C@H]4CC[C@H](N5CCN(CC6CC6)CC5)CC4)cc3OC)nc2N1C(C)C"
tested_system = "LIMK2KD (Homo sapiens, UniProt P53671)"
readout_label = "ΔTm at 10 µM"
readout_value = 0.3

